# Test system: NCI-H226 lung
# assay-remarks: NCI tumour cell line growth inhibition, 48 h
# key: entry, value: GI50

Worked set:
compound: COc1ccc2c(c1)C(=O)c1c-2c(N2CCNCC2)nc2ccccc12
value: 10.9 µM
//
compound: Nc1cc2cccc[n+]2c2cccc(Cl)c12
value: 18 µM
//
compound: O=c1c(-c2ccccc2)coc2cc(OC/C(=N/O)c3ccc(F)cc3)ccc12
value: 25.1 µM

Qu. Can you look up the measured GI50 of CCN(CC)CCC(CNc1c(C)cnc2cc(Cl)ccc12)c1ccc(Cl)cc1 (stereo not given) for me?
Ans. 16 µM

Qu. Similarly, CC(=O)O.CC(=O)O.CC(=O)O.CC(=O)O.[Rh].[Rh] ?
Ans. 22 µM

Qu. Similarly, NC(=O)c1cccc(-c2cc(C(N)=O)ccc2Cl)c1 ?
Ans. 13.4 µM

Qu. Similarly, O=C1CCC(N2C(=O)c3cccc(NCCCC4CCN(CCNC(=O)c5cc6c(o5)C(=O)c5ccccc5C6=O)CC4)c3C2=O)C(=O)N1 (stereo not given) ?
Ans. 1.42 µM

Qu. Similarly, CN1CCN(c2cc3nc4ccccc4n(-c4ccc(Cl)cc4)c-3cc2=N)CC1 ?
Ans. 60.7 µM

Qu. Similarly, N/C(=N\c1nc2ccccc2s1)NC(=NC1CCCCC1)NC1CCCCC1 ?
Ans. 1.67 µM

Qu. Similarly, COc1ccc(Oc2ccccc2NC(=O)CNC(=O)c2cccc3ccccc23)cc1 ?
Ans. 4.3 µM

---

# key: entry, value: TGI
# Test system: SK-MEL-5 melanoma
# assay-remarks: NCI tumour cell line growth inhibition, 48 h
Report the figure in µM without appending any unit label.

Worked set:
molecule: O=S(=O)(NC1=NCCN1C(=S)SN1CCn2c1nsc2=S)c1cccc(OC(F)(F)F)c1
quantity-name: TGI
scale-unit: µM
value: 32.8
--
molecule: O=C(Nc1cnc(C(F)(F)F)cn1)c1cc(Cl)ccc1O
quantity-name: TGI
scale-unit: µM
value: 0.336
--
molecule: COc1cc(OC)cc(-c2n/c(=C\c3c(O)[nH]c4ccc(Cl)cc34)cc3c2=Nc2ccccc2-3)c1
quantity-name: TGI
scale-unit: µM
value: 62.5

Alright, here's another molecule for you.
Qu. Can you look up the measured TGI of O=C1CSC(c2ccccc2O)N1c1nnc(Cn2ccnc2)o1 (stereo not given) for me?
Ans. 20.2

---

# key: entry, value: TGI
# Test system: LOX IMVI melanoma
# assay-remarks: NCI tumour cell line growth inhibition, 48 h

molecule: O=c1[nH]c2cc3cccnc3c(Cl)c2nc1CBr
TGI: 31.1 µM

Qu. Quick check: TGI on LOX IMVI melanoma, item COc1ccc(-c2ccc(/C=N/n3c(COc4ccccc4Cl)n[nH]c3=S)o2)c([N+](=O)[O-])c1 ?
Ans. 45.8 µM

Qu. Similarly, CN1CCN(c2cc3nc4ccccc4n(-c4ccc(Cl)cc4)c-3cc2=N)CC1 ?
Ans. 36.6 µM

Qu. Similarly, [N-]=[N+]=NC[C@H]1OCO[C@H](CN=[N+]=[N-])[C@H]2OCCOCCOc3ccccc3OCCOCCO[C@@H]21 ?
Ans. > 100 µM

Qu. Similarly, COc1cc(C2CC(=O)Nc3c2cc(Br)c2ccccc32)cc(Br)c1OC (stereo unspecified) ?
Ans. > 100 µM

---

# Test system: SN12C renal
# assay-remarks: NCI tumour cell line growth inhibition, 48 h
quantity-name: TGI

Worked set:
molecule: COc1ccc2c(c1OC)C(=O)O[C@@H]2[C@H]1c2cc3c(cc2CCN1C)OCO3
TGI: > 100 µM

molecule: O=C1c2ccccc2C(=O)N1C1(C(=O)NC2(C(=O)O)CCCC2)CCCC1
TGI: > 100 µM

molecule: CN(/N=N/c1nc[nH]c1C(N)=O)C1CCCCC1
TGI: > 100 µM

molecule: COC1(C)C(=O)N2C1N(C(=O)OCc1ccccc1)CC2(C)C (stereo not given)
TGI: > 100 µM

molecule: O=C(O)[C@@H](NS(=O)(=O)c1ccc2ccccc2c1)c1ccccc1
TGI: > 100 µM

Qu. Can you look up the measured TGI of COC(=O)/C(C#N)=C1\CCc2ccccc21 for me?
Ans. > 100 µM

Qu. Similarly, CN(C)Cc1cc(C(=O)/C=C/c2cccc(Cl)c2)cc(CN(C)C)c1O ?
Ans. 11.4 µM

Qu. Similarly, COc1cccc(CC(C)=C(c2ccc(OCCCN(C)C)cc2)c2ccc(OCCCN(C)C)cc2)c1 ?
Ans. 1.22 µM

Qu. Similarly, COc1ccc2c(c1)C(=O)c1c-2c(N2CCNCC2)nc2ccccc12 ?
Ans. 14.9 µM

Qu. Similarly, O=C(/C=C(\O)c1ccccc1)/C(=C/C(=O)c1ccccc1)NN=C(c1ccccc1)c1ccccc1 ?
Ans. > 100 µM

---

# key: entry, value: GI50
# Tested on: UACC-257 melanoma
# assay-remarks: NCI tumour cell line growth inhibition, 48 h

compound: COc1cccc(C2C(C#N)=C(N)Oc3c2ccc2ccccc32)c1 (stereo not given)
assayed-system: UACC-257 melanoma
GI50: 0.901 µM
//
compound: N/C(=N\c1nc2ccccc2s1)NC(=NC1CCCCC1)NC1CCCCC1
assayed-system: UACC-257 melanoma
GI50: 1.76 µM
//
compound: O=c1c(O)cccn1CCCN(CCCn1cccc(O)c1=O)CCn1cccc(O)c1=O
assayed-system: UACC-257 melanoma
GI50: 3.42 µM

Alright, here's another compound for you.
Qu. Can you look up the measured GI50 of C=C1C(=O)O[C@H]2[C@H]1CC/C(CNC(=O)/C=C/c1ccccc1)=C\CC[C@@]1(C)O[C@@H]21 for me?
Ans. 1.53 µM

---

# key: entry, value: TGI
# System: ACHN renal
# assay-remarks: NCI tumour cell line growth inhibition, 48 h
Report the figure in µM without appending any unit label.

test-smiles: Cc1ccc(S(=O)(=O)c2ccc([N+](=O)[O-])o2)cc1
assayed-system: ACHN renal
scale-unit: µM
TGI: 3.03

Alright, here's another compound for you.
Qu. Can you look up the measured TGI of CCCCc1ccc(-n2sc3ncccc3c2=O)cc1 for me?
Ans. 23.5

---

# Test system: HOP-62 NSCLC
# assay-remarks: NCI tumour cell line growth inhibition, 48 h; in the data active means GI50 below about 0.43 µM; inactive means the rest
Respond only with the outcome that fits, drawn from active, inactive

compound: COc1ccc(-c2ccc(/C=N/n3c(COc4ccccc4Cl)n[nH]c3=S)o2)c([N+](=O)[O-])c1
class-name: inactive
//
compound: C[C@H]1c2ccccc2CN1CCCOc1cc2c(cc1OCC1CC1)C1(CCCC1)C(N)=N2
class-name: inactive
//
compound: CCN(C(=O)CN1CCN(c2cc3c(cc2F)c(=O)c(C(=O)O)cn3CC)CC1)c1nc(-c2ccccc2)cs1
class-name: active
//
compound: CCN1C(=O)N(CC)C2C1NN=c1s/c(=C\c3ccc[nH]3)c(=O)n12 (stereo not given)
class-name: inactive
//
compound: O=C1CSC(c2ccccc2O)N1c1nnc(Cn2ccnc2)o1 (stereo not given)
class-name: inactive
//
compound: Nc1n[nH]c2ccc([C@@H]3Nc4cc5[nH]ncc5cc4[C@H]4C5CCC(C5)[C@@H]34)cc12 (stereo not given in full)
class-name: inactive
//
compound: CC1=C(C(=O)Nc2ccc(F)c(Cl)c2)C(c2ccccc2O)NC(=O)N1 (stereo not given)
class-name: inactive
//
compound: COc1cccc(CC(C)=C(c2ccc(OCCCN(C)C)cc2)c2ccc(OCCCN(C)C)cc2)c1
class-name: inactive
//
compound: OCc1ccc(N2CCCC2)cc1Cl
class-name: inactive

Now consider a different compound.
Qu. // outcome(item) with item = COc1cc(/C=C/[N+](=O)[O-])cc(OC)c1OC
Ans. inactive

---

# Tested on: SK-MEL-28 melanoma
# assay-remarks: NCI tumour cell line growth inhibition, 48 h
# key: entry, value: TGI
Report the figure in µM without appending any unit label.

Worked set:
compound: C/C=C/[C@H]1O[C@@](O)([C@@H](C)[C@H](O)[C@H](C)[C@H]2OC(=O)/C(OC)=C/C(C)=C/[C@@H](C)[C@@H](O)[C@@H](CC)[C@@H](O)[C@H](C)C/C(C)=C/C=C/[C@@H]2OC)C[C@H](OC2CC(O)C(OC(N)=O)C(C)O2)[C@@H]1C (some centres undefined)
TGI (µM): 20.4
//
compound: CN(CCc1ccc(Cl)c(Cl)c1)CCN(C)CCN1CCCC1
TGI (µM): 3.34
//
compound: CCOC(=O)C1=C(C)N2C(=NC3=C(CCC/C3=C\c3ccc(Cl)cc3)C2c2ccc(Cl)cc2)S1 (centres undefined)
TGI (µM): 11.4

Alright, here's another compound for you.
Qu. Can you look up the measured TGI of O=c1cccc(C#CC#CCCCO)o1 for me?
Ans. 22.2

---

# Tested on: M14 melanoma
# assay-remarks: NCI tumour cell line growth inhibition, 48 h
quantity-name: TGI (µM)
Report the figure in µM without appending any unit label.

Qu. Can you look up the measured TGI of O=C1CCC(N2C(=O)c3cccc(NCCCC4CCN(CCNC(=O)c5cc6c(o5)C(=O)c5ccccc5C6=O)CC4)c3C2=O)C(=O)N1 (stereo not drawn) for me?
Ans. 0.309

Qu. Similarly, COc1ccc(-c2onc(-c3c(C)cc(C)cc3C)c2C2=NCCN2)cc1 ?
Ans. 35.8

Qu. Similarly, COc1cc(OC)cc(-c2n/c(=C\c3c(O)[nH]c4ccc(Cl)cc34)cc3c2=Nc2ccccc2-3)c1 ?
Ans. 13.7

Qu. Similarly, N.N.N.N.N.O=S(=O)([O-])C(F)(F)F.O=S(=O)([O-])C(F)(F)F.[Os+8] ?
Ans. 28.7

Qu. Similarly, O=NN(CCCl)C(=O)NC1CCC(=O)NC1=O (stereo not drawn) ?
Ans. 905
